Data provenance: patent US6914045B2

I'd appreciate it if you could supply MIC Staphylococcus aureus (GC 4542) values for the items below.
# Test system: Staphylococcus sp.
# EXPERIMENT_DESCRIPTION: in vitro antibacterial evaluation, MIC by broth dilution
# Type: cell-based
# RECORDED_CONDITIONS: broth dilution, 18 hours at 35° C.
Square brackets hold non-standard residues; d marks the D form. Peptide text beside a SMILES is read from it. * marks the point of attachment. ξ: configuration not given here. ξEnduracididine(βξ-OH,4'ξ) = N=C1NCC(C(O)C(N)C(=O)O)N1; X2 = OCC1OC(OC2C(CO)OC(*)C(O)C2O)C(O)C(O)C1O

(Q) Recorded MIC Staphylococcus aureus (GC 4542) of CC(c1ccccc1)C1NC(=O)CNC(=O)C(CO)NC(=O)C(C(O)C2CNC(=N)N2C2OC(CO)C(O)C(O)C2O)NC(=O)C(C(O)C2CNC(=N)N2)NC(=O)C(Cc2ccc(OC3OC(CO)C(OC4OC5COC(CC6CCN(C(=O)OCc7ccccc7)CC6)OC5C(O)C4O)C(O)C3O)cc2)NC1=O (stereo not drawn) , please.
(A) 1 mg/L

(Q) Quick one: MIC Staphylococcus aureus (GC 4542) of CC(c1ccccc1)C1NC(=O)CNC(=O)C(CO)NC(=O)C(C(O)C2CNC(=N)N2C2OC(CO)C(O)C(O)C2O)NC(=O)C(C(O)C2CNC(=N)N2)NC(=O)C(Cc2ccc(OC3OC(CO)C(OC4OC5COC(Cc6ccccc6)OC5C(O)C4O)C(O)C3O)cc2)NC1=O (stereo not drawn) ?
(A) 0.5 to 1 mg/L

(Q) Consider the compound N=C1NCC(C(O)C2NC(=O)C(Cc3ccc(OC4OC(CO)C(OC5OC(CO)C(O)C(O)C5O)C(O)C4O)cc3)NC(=O)C(Cc3ccccc3)NC(=O)CNC(=O)C(CO)NC(=O)C(C(O)C3CNC(=N)N3)NC2=O)N1 (stereo not drawn) [Example 296] (cyclo(GFY(X2)[ξEnduracididine(βξ-OH,4'ξ)][ξEnduracididine(βξ-OH,4'ξ)]S); configuration not given here) and give its measured MIC Staphylococcus aureus (GC 4542).
(A) >128 mg/L
